- System: satellite-like cells (Pax7-positive cells) in hMP
- Method Notes: Myotube assay: Pax7-positive (satellite-like) cell quantification
- Format: cell-based, human
- Design: key: −: Depletes the pool of cells, while positively affects the myotubes; +: Maintains or increases the pool of cells, with at least 1 of the highest concentration known to be cytotoxic; ++: Maintains or increases the pool of cells, without any toxicity
- Condition Details: myotube assay, compounds incubated 3 days
- Text: The efficacy of said compound for use in treating, ameliorating, delaying, curing and/or preventing a disease or condition associated with muscle cells and/or satellite cells is positively correlated with the generation of myotubes (i.e. the increase of the area occupied by myotubes on the assay) and/or satellite cells (i.e. the increase of the number of satellite cells) in the assay after adding said compound. […]
Observation Type: Pax7% (pool of Pax7-positive cells)

> print(dat)
                                 smiles.repr                     target.or.test.system                     observation.type  reported
 1  CSc1cc(Oc2ccnc3[nH]c(=O)cnc23)ccc1NC(=O)Nc1cc(C(C)(C)C)on1  satellite-like cells (Pax7-positive cells) in hMP  Pax7% (pool of Pax7-positive cells)         +
 2  COc1ccc(-n2nc(C(C)(C)C)cc2NC(=O)Nc2ccc(Oc3ccnc4[nH]c(=O)cnc34)cc2SC)cc1  satellite-like cells (Pax7-positive cells) in hMP  Pax7% (pool of Pax7-positive cells)        ++
 3  CNC(=O)c1cncc(Oc2ccc(NC(=O)Nc3cc(C(C)(C)C)nn3-c3ccccc3)c(SC)c2)c1  satellite-like cells (Pax7-positive cells) in hMP  Pax7% (pool of Pax7-positive cells)        ++
 4  COc1cc(Oc2ccnc3[nH]c(=O)cnc23)ccc1NC(=O)Nc1cc(C(C)(C)C)nn1-c1ccccc1  satellite-like cells (Pax7-positive cells) in hMP  Pax7% (pool of Pax7-positive cells)        ++
 5  CCOC(=O)Nc1cc(Oc2ccc(NC(=O)Nc3cc(C(C)(C)C)no3)c(SC)c2)ccn1  satellite-like cells (Pax7-positive cells) in hMP  Pax7% (pool of Pax7-positive cells)         +
 6  CC(C)(C)c1cc(NC(=O)Nc2ccc(Oc3ccnc4[nH]c(=O)cnc34)nc2)n(-c2ccccc2)n1  satellite-like cells (Pax7-positive cells) in hMP  Pax7% (pool of Pax7-positive cells)         +
 7  CC(C)(C)c1nc(NC(=O)Nc2ccc(Oc3ccnc4[nH]c(=O)cnc34)cc2F)n(-c2ccccc2)n1  satellite-like cells (Pax7-positive cells) in hMP  Pax7% (pool of Pax7-positive cells)        ++
 8  CSc1cc(Oc2ccnc(NS(C)(=O)=O)c2)ccc1NC(=O)Nc1cc(C(C)(C)C)no1  satellite-like cells (Pax7-positive cells) in hMP  Pax7% (pool of Pax7-positive cells)        ++
 9  CC(=O)Nc1cc(Oc2ccc(NC(=O)Nc3cc(C(C)(C)C)nn3-c3ccccc3)c(F)c2)ccn1  satellite-like cells (Pax7-positive cells) in hMP  Pax7% (pool of Pax7-positive cells)         +
10  CNC(=O)c1cc(Oc2ccc(NC(=O)Nc3cc(C(C)(C)C)nn3-c3ccc4ncccc4c3)c(SC)c2)ccn1  satellite-like cells (Pax7-positive cells) in hMP  Pax7% (pool of Pax7-positive cells)        ++
11  CNC(=O)c1ccc(Oc2cccc(NC(=O)Nc3cc(C(C)(C)C)nn3-c3ccccc3)c2)cn1  satellite-like cells (Pax7-positive cells) in hMP  Pax7% (pool of Pax7-positive cells)        ++
12  CC(C)(C)c1cc(NC(=O)Nc2ccc(Oc3ccccc3)cc2F)n(-c2ccccc2)n1  satellite-like cells (Pax7-positive cells) in hMP  Pax7% (pool of Pax7-positive cells)        ++
13  Cc1cc(Oc2ccnc3[nH]c(=O)cnc23)ccc1NC(=O)Nc1cc(C(C)(C)C)nn1-c1ccccc1  satellite-like cells (Pax7-positive cells) in hMP  Pax7% (pool of Pax7-positive cells)        ++
14  CC(C)(C)c1cnc(NC(=O)Nc2ccc(Oc3ccnc4[nH]c(=O)cnc34)c3ccccc23)s1  satellite-like cells (Pax7-positive cells) in hMP  Pax7% (pool of Pax7-positive cells)        ++
15  CNC(=O)c1cc(Oc2ccc(NC(=O)Nc3cc(C(C)(C)C)nn3-c3ccc4ncccc4c3)c3ccccc23)ccn1  satellite-like cells (Pax7-positive cells) in hMP  Pax7% (pool of Pax7-positive cells)         +
16  CSc1cc(Oc2ccnc3[nH]c(=O)cnc23)ccc1NC(=O)Nc1cc(C(C)(C)C)nn1-c1ccccc1Cl  satellite-like cells (Pax7-positive cells) in hMP  Pax7% (pool of Pax7-positive cells)        ++
